Origin of values: the METLIN SMRT retention time set (Domingo-Almenara et al. 2019)

Experiment: gradient 5% acetonitrile 3 min, to 50% in 2 min, to 85% in 15 min, held 3 min, 100 µL/min
Settings: column: Zorbax Extend-C18 2.1 x 50 mm; eluents: water / acetonitrile, 0.1% formic acid
PROPERTY MEASURED: RP-LC retention time (s)

# count of solved cases: 5
[
  {
    "COMPOUND": "O=C(NCCn1c(=O)n(Cc2ccccc2)c2cccnc21)c1cccs1",
    "RP-LC retention time [s]": 744
  },
  {
    "COMPOUND": "CC(=O)N1CCc2cc(N3CC(C(=O)Nc4ccc(C)cc4)CC3=O)ccc21 (stereo not drawn)",
    "RP-LC retention time [s]": 720
  },
  {
    "COMPOUND": "COc1ccc(OC)c(CNC(=O)c2[nH]c3cc(C)sc3c2CN(C)C)c1",
    "RP-LC retention time [s]": 676
  },
  {
    "COMPOUND": "CCN(CC)CCNCc1ccc(-c2ccc(OC)c(Cl)c2)o1",
    "RP-LC retention time [s]": 566
  },
  {
    "COMPOUND": "O=C(NCc1ccc(Br)cc1)C1CCN(c2cnc3nccnc3c2)CC1",
    "RP-LC retention time [s]": 746
  }
]

a = CCOc1ccccc1NC(=O)c1cnc(-c2ccccc2)nc1-c1ccncc1
b = O=C(NCCc1ccccn1)C1CN(C(=O)c2cccs2)CC12CCCCC2 (stereo not drawn)
Which has the higher RP-LC retention time, a or b ? Your answer should be the label of the entry you select.
a

###

Test: gradient 5% acetonitrile 3 min, to 50% in 2 min, to 85% in 15 min, held 3 min, 100 µL/min
Conditions: column: Zorbax Extend-C18 2.1 x 50 mm; eluents: water / acetonitrile, 0.1% formic acid
PROPERTY MEASURED: RP-LC retention time (s)

# count of solved cases: 6
[
  {
    "COMPOUND": "CCc1noc(NC(C)=O)c1-c1ccc(C)c(S(=O)(=O)Nc2ccc(C(=O)OC)cc2)c1",
    "PROPERTY MEASURED": "RP-LC retention time",
    "ENDPOINT RESULT": 736
  },
  {
    "COMPOUND": "Cc1ccc(C(=O)NC2CCN(c3cc(-c4ccc(Cl)cc4)[nH]n3)C2)cc1C (stereo not drawn)",
    "PROPERTY MEASURED": "RP-LC retention time",
    "ENDPOINT RESULT": 860
  },
  {
    "COMPOUND": "CCOc1ccc(CNC(=O)c2ccc3c(c2)nc2n3CCN(C3CCCCC3)C2=O)cc1",
    "PROPERTY MEASURED": "RP-LC retention time",
    "ENDPOINT RESULT": 830
  },
  {
    "COMPOUND": "O=C(NC1CCCC1)NC1CCN(c2ccccc2)C1=O (stereo not drawn)",
    "PROPERTY MEASURED": "RP-LC retention time",
    "ENDPOINT RESULT": 726
  },
  {
    "COMPOUND": "Cc1cc2c(=O)n(CC(=O)Nc3ccc(C(F)(F)F)cc3)ccc2s1",
    "PROPERTY MEASURED": "RP-LC retention time",
    "ENDPOINT RESULT": 706
  },
  {
    "COMPOUND": "Cc1ccc(Cl)c(Nc2ccccc2C(=O)O)c1Cl",
    "PROPERTY MEASURED": "RP-LC retention time",
    "ENDPOINT RESULT": 1050
  }
]

A = CCc1ccc(NC(=O)Cc2c(C)nn(-c3nc(-c4ccc(Cl)cc4)cs3)c2C)cc1
B = O=C(CSc1cc(N2CCCC2)ncn1)NCc1cccs1
I would appreciate it if you could say which entry, A or B , has the lower RP-LC retention time value. Your answer should be the label of the entry you select.
B
(B: 601 s, A: 972 s)

A = COc1cc2c(cc1OC)CN(C(=O)c1cc(-c3ccc(F)cc3)c[nH]1)CC2
B = Clc1ccccc1N1CCN(c2nccn3nc(-c4ccccc4)cc23)CC1
Which has the higher RP-LC retention time, A or B ? Your answer should be the label of the entry you select.
B
